Some binders, each annotated with its measured EC50.
ASSAY TARGET: T1, CD52 human leukocyte antigen (human, UniProt P31358 25-36)
T1 construct: whole, on cells; also called CD52 antigen
T1 chain (looked up): GQNDTSQTSSPS
ASSAY NAME: FACS on HUT-78 cells (CD52+), FITC anti-human IgG Fc, median fluorescence, 4-parameter fit; titre = 50% of maximum binding
// units = µg/mL; emit number, no label

{"columns": ["BINDER", "MEASUREMENT UNITS", "ENDPOINT RESULT"],
 "data": [
  ["DIVH3/DIVK4 (antibody, human IgG1, V domains shown, also called DIVHv3/DIVKv4) VH: EVKLQESGGGLVQPGGSMRISCSGSGFTFTDFYMNWIRQPPGKGPEWIGFIRDKAKGYTTEYNPSVKGRFTISRDNTQNTLHLQANTLRAEDTAVYYCAREGHTAAPFDYWGQGTTVTVSS VL: DIQMTQSPSSLSASVGDRVTITCKASQNIDKYLNWYQQKPGKAPKSLIYNTNNLQTGVPSRFSGSGSGTDFTLTISSLQPEDIATYYCLQHISRPRTFGTGTKLELK", "µg/mL", 8.63]
]}

# context switch: different binder, same EC50
In: Requested read-out: EC50. Entry: DIVH2/DIVK2 (antibody, human IgG1, V domains shown, also called DIVH2IDIVK2; DIVHv2/DIVKv2) VH: EVQLLESGGGLVQPGGSLRLSCAGSGFTFTDFYMNWIRQPPGKAPEWIGFIRDKAKGYTTEYNPSVKGRFTISRDNSKNTLYLQMNSLRAEDTAVYYCAREGHTAAPFDYWGQGTLVTVSS VL: DIQMTQSPSSLSASVGDRVTITCKASQNIDKYLNWYQQKPGKAPKLLIYNTNNLQTGVPSRFSGSGSGTDFTLTISSLQPEDIATYYCLQHISRPRTFGTGTKLELK
Out: 3.7

Source listed as patent US20050152898A1.
